This collection of values is drawn from patent US9732075B2.

# measurement_target: human orexin-1 receptor (Homo sapiens (Human))
# method_notes: In vitro assay: intracellular calcium measurements (FLIPR), antagonistic activity
# test_context: CHO cells expressing human orexin-1 receptor, orexin-A agonist, geometric mean, read-out: IC50 Ox1
measured_parameter: IC50 (nM)

// worked examples, IC50 included
Cc1nc(C(=O)N2CCC[C@H]2c2nc3c(C)c(Cl)ccc3[nH]2)c(-c2ccccc2)s1 [Ex. 1.145] = 3
C=C1C[C@@H](c2nc3cc(C)c(C)cc3[nH]2)N(C(=O)c2nc(C)ccc2-n2nccn2)C1 [Ex. 6.202] = 89
Cc1nc(C(=O)N2CCCC2c2nc3cc(C(F)(F)F)ccc3[nH]2)c(-c2ccccc2)s1 (stereo not shown) [Ex. 1.121] = 76

(I) Cc1ccc(-n2nccn2)c(C(=O)N2CCC[C@@]2(C)c2nc3cc(C(F)(F)F)c(Cl)cc3[nH]2)c1F [Ex. 5.134]
(II) Cc1ccc(-c2ccc(C)cc2C(=O)N2CCC[C@@]2(C)c2nc3c(C)c(C)ccc3[nH]2)cc1 [Ex. 5.113]
(III) C[C@@]1(c2nc3cc(F)c(Br)cc3[nH]2)CCCN1C(=O)c1c(F)cccc1-n1nccn1 [Ex. 5.123]
(IV) CO[C@@H]1C[C@@H](c2nc3ccc(Cl)c(C)c3[nH]2)N(C(=O)c2nc(C)sc2-c2ccc(Cl)cc2)C1 [Ex. 3.35]
Incoming: Arrange these molecules by their IC50, starting with the largest number. Could you list the labels in the order requested?
Outgoing: III, II, I, IV
(III: 146 nM, II: 12 nM, I: 8 nM, IV: 3 nM)

###

# measurement_target: human orexin-2 receptor (Homo sapiens (Human))
# Sequence (O43614 whole entry): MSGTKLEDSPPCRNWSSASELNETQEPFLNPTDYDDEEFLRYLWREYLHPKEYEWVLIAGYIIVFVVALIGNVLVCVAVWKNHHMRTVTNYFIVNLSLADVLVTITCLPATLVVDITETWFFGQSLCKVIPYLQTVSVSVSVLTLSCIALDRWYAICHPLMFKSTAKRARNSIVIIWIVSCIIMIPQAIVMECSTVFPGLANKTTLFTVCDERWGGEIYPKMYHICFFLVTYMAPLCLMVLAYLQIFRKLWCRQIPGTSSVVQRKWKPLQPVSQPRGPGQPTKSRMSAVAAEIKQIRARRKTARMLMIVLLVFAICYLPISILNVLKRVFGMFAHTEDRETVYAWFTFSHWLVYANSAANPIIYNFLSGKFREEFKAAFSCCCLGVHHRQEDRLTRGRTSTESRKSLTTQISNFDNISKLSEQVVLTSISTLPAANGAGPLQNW
# method_notes: In vitro assay: intracellular calcium measurements (FLIPR), antagonistic activity
# test_context: CHO cells expressing human orexin-2 receptor, orexin-A agonist, geometric mean, read-out: IC50 Ox2
measured_parameter: IC50 (nM)

// worked examples, IC50 included
Cc1c(Cl)ccc2[nH]c([C@]3(C)CCCN3C(=O)c3nc(-c4ccccc4Cl)sc3-c3ccc(F)cc3)nc12 [Ex. 5.256] = 402
Cc1ccc(-c2cccc(C(F)(F)F)c2)c(C(=O)N2CCC[C@@]2(C)c2nc3cc(C(F)(F)F)c(Cl)cc3[nH]2)c1 [Ex. 5.155] = 249
Cc1nc(C(=O)N2CCCC2c2nc3cc(C)c(C)cc3[nH]2)c(-c2cccc(Cl)c2)s1 (stereo not drawn) [Ex. 1.95] = 15

(P) Cc1nc(C(=O)N2CC[C@H](C)[C@H]2c2nc3c(C)cc(Cl)cc3[nH]2)c(-c2cc(F)cc(F)c2)s1 [Ex. 4.98]
(Q) Cc1nc(C(=O)N2CCCC2c2nc3c(Br)cccc3[nH]2)c(-c2ccccc2)s1 (stereo not drawn) [Ex. 1.130]
Incoming: Quick one: lower IC50, P or Q ? Pick one and reply with its label.
Outgoing: Q

###

# measurement_target: human orexin-2 receptor (Homo sapiens (Human))
# method_notes: In vitro assay: intracellular calcium measurements (FLIPR), antagonistic activity
# test_context: CHO cells expressing human orexin-2 receptor, orexin-A agonist, geometric mean, read-out: IC50 Ox2
pIC50: −log10 of the molar value.
measured_parameter: pIC50

Cc1nc(C(=O)N2CCC[C@@]2(C)c2nc3cc(OC(F)(F)F)ccc3[nH]2)c(-c2cc(F)cc(F)c2)s1 = 6.27

(a) Cc1nc(C(=O)N2CC[C@H](C)[C@H]2c2nc3c(Cl)cccc3[nH]2)c(-c2ccc(Br)cc2)s1
(b) Cc1ccc2[nH]c([C@]3(C)CCCN3C(=O)c3ccccc3-c3ccc(F)cc3)nc2c1C
(c) C=C1C[C@@H](c2nc3ccc(Cl)c(C)c3[nH]2)N(C(=O)c2c(-n3nccn3)ccc(OC)c2F)C1
(d) COc1cc2nc([C@]3(C)CCCN3C(=O)c3ccccc3-n3cccn3)[nH]c2cc1OC
(e) Cc1nc(C(=O)N2CCCC2c2nc3cc(C)c(C)cc3[nH]2)c(-c2ccccc2)s1 (stereo not shown)
Incoming: Arrange these compounds by their pIC50, starting with the largest number. Could you list the labels in the order requested?
Outgoing: c, e, b, d, a
(c: 8.70, e: 7.35, b: 7.13, d: 6.89, a: 6.06)

###

# measurement_target: human orexin-1 receptor (Homo sapiens (Human), UniProt O43613)
# Sequence (O43613 whole entry): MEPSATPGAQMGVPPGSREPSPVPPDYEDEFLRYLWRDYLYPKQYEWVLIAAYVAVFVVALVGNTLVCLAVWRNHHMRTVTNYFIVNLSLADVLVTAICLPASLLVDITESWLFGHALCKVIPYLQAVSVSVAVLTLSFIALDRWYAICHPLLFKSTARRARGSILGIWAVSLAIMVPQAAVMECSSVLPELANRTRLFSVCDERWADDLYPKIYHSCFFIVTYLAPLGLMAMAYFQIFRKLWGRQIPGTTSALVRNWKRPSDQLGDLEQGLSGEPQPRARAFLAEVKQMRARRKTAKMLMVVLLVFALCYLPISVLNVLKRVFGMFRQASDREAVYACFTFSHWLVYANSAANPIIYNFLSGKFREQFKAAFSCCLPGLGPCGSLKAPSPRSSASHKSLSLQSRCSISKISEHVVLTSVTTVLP
# method_notes: In vitro assay: intracellular calcium measurements (FLIPR), antagonistic activity
# test_context: CHO cells expressing human orexin-1 receptor, orexin-A agonist, geometric mean, read-out: IC50 Ox1
measured_parameter: IC50 (nM)

C=C1C[C@@H](c2nc3cccc(C)c3[nH]2)N(C(=O)c2nc(C)sc2-c2cccc(C(F)(F)F)c2)C1 [Ex. 6.112] = 15

(P) Cc1ccc(-c2cccc(C(F)(F)F)c2)c(C(=O)N2CCC[C@@]2(C)c2nc3cc(C(F)(F)F)ccc3[nH]2)c1 [Ex. 5.195]
(Q) C=C1C[C@@H](c2nc3ccc(Cl)c(C)c3[nH]2)N(C(=O)c2nc(C)sc2-c2ccc(Br)cc2)C1 [Ex. 6.116]
Incoming: Quick one: lower IC50, P or Q ? Pick one and reply with its label.
Outgoing: Q
(Q: 14 nM, P: 73 nM)

(a) COc1ccc(-n2nccn2)c(C(=O)N2CCC[C@@]2(C)c2nc3cc(C)c(C)cc3[nH]2)c1F [Ex. 5.55]
(b) C=C1CC(c2nc3c(OC)ccc(OC)c3[nH]2)N(C(=O)c2cc(C)sc2-c2ccc(C)c(C)c2)C1 (racemic) [Ex. 6.83]
Incoming: Quick one: lower IC50, a or b ? Pick one and reply with its label.
Outgoing: b

(P) Cc1ccc(-c2ncccn2)c(C(=O)N2CCC[C@@]2(C)c2nc3cccc(C)c3[nH]2)c1 [Ex. 5.278]
(Q) C[C@@]1(c2nc3cc(C(F)(F)F)ccc3[nH]2)CCCN1C(=O)c1cc(-c2cccc(C#N)c2)ccc1-n1nccn1 [Ex. 5.295]
Incoming: Quick one: lower IC50, P or Q ? Pick one and reply with its label.
Outgoing: Q

###

# measurement_target: UniProt:O43613
# method_notes: In vitro assay: intracellular calcium measurements (FLIPR), antagonistic activity
# test_context: CHO cells expressing human orexin-1 receptor, orexin-A agonist, geometric mean, read-out: IC50 Ox1
pIC50: −log10 of the molar value.
measured_parameter: pIC50

// worked examples, pIC50 included
Cc1nc(C(=O)N2CC[C@H](C)[C@H]2c2nc3cc(C)c(C)cc3[nH]2)c(-c2ccc(F)cc2)s1 = 8.22
C=C1C[C@@H](c2nc3ccc(Cl)c(C)c3[nH]2)N(C(=O)c2nc(C)sc2-c2cccc(C)c2)C1 = 9.05
C=C1C[C@@H](c2nc3cc(OC)ccc3[nH]2)N(C(=O)c2cncnc2-c2cccc(C)c2)C1 = 6.51
COc1ccc2nc([C@@H]3CCCN3C(=O)c3cc(C#N)ccc3-n3nccn3)[nH]c2c1 = 6.04
COCCn1c([C@]2(C)CCCN2C(=O)c2cc(C)ccc2-c2cccc(OC)c2)nc2cc(C)c(C)cc21 = 7.34

(1) Cc1ccc(-c2ncccn2)c(C(=O)N2CCC[C@@]2(C)c2nc3cc(F)c(Br)cc3[nH]2)c1
(2) C=C1CN(C(=O)c2nc(C)sc2-c2ccc(OC)cc2)C(C)(c2nc3cc(OC)ccc3[nH]2)C1 (stereo not drawn)
Incoming: Please state the entry with greater pIC50 among 1 and 2 . Pick one and reply with its label.
Outgoing: 2

###

# measurement_target: human orexin-1 receptor (Homo sapiens (Human), UniProt O43613)
# method_notes: In vitro assay: intracellular calcium measurements (FLIPR), antagonistic activity
# test_context: CHO cells expressing human orexin-1 receptor, orexin-A agonist, geometric mean, read-out: IC50 Ox1
measured_parameter: IC50 (nM)

// worked examples, IC50 included
C=C1C[C@@H](c2nc3cc(OC)ccc3[nH]2)N(C(=O)c2nc(C)sc2-c2cccc(C)c2)C1 = 15
CCn1c([C@]2(C)CCCN2C(=O)c2nc(C)sc2-c2ccccc2)nc2c(C)c(Cl)ccc21 = 2

(A) Cc1nc(C(=O)N2CC[C@H](C)[C@H]2c2nc3cc(C)c(C)cc3[nH]2)c(-c2cc(F)cc(F)c2)s1
(B) Cc1cc2nc([C@]3(C)CCCN3C(=O)c3ccccc3-c3cccc(F)c3)[nH]c2cc1C
Incoming: Please state the entry with greater IC50 among A and B . Pick one and reply with its label.
Outgoing: B

(A) Cc1nc(C(=O)N2CCCC2c2nc3c(Br)cccc3[nH]2)c(-c2cccc(Cl)c2)s1 (stereo not drawn)
(B) Cc1c(Cl)ccc2[nH]c([C@@H]3[C@@H](C)CCN3C(=O)c3c(F)cccc3-c3ccccc3)nc12
Incoming: Quick one: lower IC50, A or B ? Pick one and reply with its label.
Outgoing: B
(B: 4 nM, A: 17 nM)

(A) Cc1ccc(-c2sccc2C(=O)N2CC[C@H](C)[C@H]2c2nc3c(C(F)(F)F)cccc3[nH]2)cc1C
(B) Cc1nc(C(=O)N2CCCC2c2nc3cc(C)c(C)cc3[nH]2)c(-c2ccccc2)s1 (stereo not drawn)
(C) Cc1ccc(-c2sc(N(C)C)nc2C(=O)N2CC[C@H](C)[C@H]2c2nc3c(Cl)cccc3[nH]2)cc1C
Incoming: Arrange these compounds by their IC50, starting with the largest number. Could you list the labels in the order requested?
Outgoing: B, A, C
(B: 55 nM, A: 2 nM, C: 1 nM)
